Target: T1, human tissue factor pathway inhibitor (TFPI) (human, UniProt P10646 29-304, limits assumed)
T1 construct: bought; also called hTFPI; human TFPI
T1 sequence (looked up): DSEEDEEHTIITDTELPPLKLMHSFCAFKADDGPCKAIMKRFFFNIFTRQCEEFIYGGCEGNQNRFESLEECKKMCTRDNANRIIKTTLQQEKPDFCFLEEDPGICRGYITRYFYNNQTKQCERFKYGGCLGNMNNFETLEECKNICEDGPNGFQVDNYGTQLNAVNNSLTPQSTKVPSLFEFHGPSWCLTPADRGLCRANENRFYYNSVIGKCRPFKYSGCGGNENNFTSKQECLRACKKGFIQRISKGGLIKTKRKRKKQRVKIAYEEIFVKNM
Test: SPR, TFPI immobilized
Reported kon is given for each of the following binders.
Quantity Measured: kon (M⁻¹ s⁻¹)

INSERT INTO assay_data (binder, observed) VALUES
  ('gB9.7 (4B7 HC Q1E+N32D+G44S+K55Y+D62R+Y112D/LC S32R+N35I) (Fab, V domains shown) VH: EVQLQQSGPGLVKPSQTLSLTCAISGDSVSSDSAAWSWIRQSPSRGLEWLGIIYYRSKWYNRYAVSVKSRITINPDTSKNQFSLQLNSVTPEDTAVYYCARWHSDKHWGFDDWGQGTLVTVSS VL: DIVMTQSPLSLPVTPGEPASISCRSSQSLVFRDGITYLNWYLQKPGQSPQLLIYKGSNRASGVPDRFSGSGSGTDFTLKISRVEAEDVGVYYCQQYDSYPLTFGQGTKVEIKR', 938000),
  ('4B7 wild-type Fab (Fab, V domains shown, Fab with HA (or c-myc) and 6xHis tag at the C-terminus of the heavy chain; also called 4B7wt; parental 4B7) VH: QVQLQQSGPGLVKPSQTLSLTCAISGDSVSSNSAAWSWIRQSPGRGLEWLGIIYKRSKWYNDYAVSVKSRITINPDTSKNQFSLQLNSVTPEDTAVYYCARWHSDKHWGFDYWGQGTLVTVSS VL: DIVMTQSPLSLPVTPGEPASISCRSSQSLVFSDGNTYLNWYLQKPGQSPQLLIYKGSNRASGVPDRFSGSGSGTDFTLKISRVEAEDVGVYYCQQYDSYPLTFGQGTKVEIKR', 756000),
  ('B27.1 (4B7 HC N32D+D62R+Y112D/LC N35T+D97T) (Fab, V domains shown) VH: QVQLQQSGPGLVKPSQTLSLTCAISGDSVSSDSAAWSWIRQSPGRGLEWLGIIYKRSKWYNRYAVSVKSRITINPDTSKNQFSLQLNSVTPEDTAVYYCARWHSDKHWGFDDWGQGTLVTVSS VL: DIVMTQSPLSLPVTPGEPASISCRSSQSLVFSDGTTYLNWYLQKPGQSPQLLIYKGSNRASGVPDRFSGSGSGTDFTLKISRVEAEDVGVYYCQQYTSYPLTFGQGTKVEIKR', '2.78e+06'),
  ('gB9.7-IgG (4B7 HC N32D+G44S+K55Y+D62R+Y112D/LC S32R+N35I) (antibody, V domains shown, IgG format by its name) VH: QVQLQQSGPGLVKPSQTLSLTCAISGDSVSSDSAAWSWIRQSPSRGLEWLGIIYYRSKWYNRYAVSVKSRITINPDTSKNQFSLQLNSVTPEDTAVYYCARWHSDKHWGFDDWGQGTLVTVSS VL: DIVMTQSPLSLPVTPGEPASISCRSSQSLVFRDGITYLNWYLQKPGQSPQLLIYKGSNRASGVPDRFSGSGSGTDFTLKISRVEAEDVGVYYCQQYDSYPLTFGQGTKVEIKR', '2.03e+06');
